target-of-assay: IDH1^R132C (Homo sapiens, UniProt O75874, R132C)
Sequence (O75874 whole entry R132C): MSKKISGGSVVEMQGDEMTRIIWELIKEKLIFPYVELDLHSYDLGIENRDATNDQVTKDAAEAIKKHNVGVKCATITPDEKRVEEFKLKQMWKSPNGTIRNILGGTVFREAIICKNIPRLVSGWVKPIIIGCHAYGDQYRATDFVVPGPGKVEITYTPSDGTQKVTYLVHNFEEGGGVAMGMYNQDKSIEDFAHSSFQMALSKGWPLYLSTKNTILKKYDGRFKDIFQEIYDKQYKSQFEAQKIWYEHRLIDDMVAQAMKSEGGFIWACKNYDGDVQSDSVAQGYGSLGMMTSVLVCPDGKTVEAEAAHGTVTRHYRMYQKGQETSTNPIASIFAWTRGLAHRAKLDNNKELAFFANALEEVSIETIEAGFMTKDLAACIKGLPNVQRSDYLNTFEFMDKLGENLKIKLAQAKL
assay-protocol: NADPH depletion assay (diaphorase/resazurin), IDH1 R132C
Format: biochemical
test-parameters: IDH1^R132C 2 nM, alpha-ketoglutarate 0.14 mM; read-out: IDH1^R132C IC50
pIC50: −log10 of the molar value.
endpoint: pIC50

As a guide, the following entries are already answered.
{"compound": "C=C(F)C(=O)N1CCN(C2(c3ccc([C@H](C)Nc4ncc5ccc(=O)n(C(C)C)c5n4)cc3)CCOCC2)CC1", "pIC50": 6.03}
{"compound": "CC#CC(=O)N1CCN(C2(c3ccc([C@H](C)Nc4ncc5ccc(=O)n(C(C)C)c5n4)cc3)CCOCC2)CC1", "pIC50": 5.83}
{"compound": "CC(C)n1c(=O)ccc2cnc(N[C@@H](C)c3ccc(C4(N(C)C5CN(C(=O)C(F)Cl)C5)CCC(F)(F)CC4)cc3)nc21 (stereo partly shown)", "pIC50": 7.55}

[P] C=CC(=O)N1CCN(C2(c3ccc([C@H](C)Nc4nc(NC)c5ccc(=O)n(C(C)C)c5n4)cc3)CCOCC2)CC1
[Q] C=CC(=O)N1CCN(C2(c3ccc([C@H](C)Nc4cc5c(ccc(=O)n5C(C)C)cn4)cc3)CCOCC2)CC1
[R] C=C(CN1CCN(C2(c3ccc([C@H](C)Nc4ncc5ccc(=O)n(C(C)C)c5n4)cc3)CCOCC2)CC1)C(=O)O
In: Please order the records by their reported pIC50, lowest number first. Please list the labels in the order you were asked to rank them.
Out: P, R, Q

[I] C=CC(=O)N1CCN(C2(c3ccc([C@H](C)Nc4nc(C)c5ccc(=O)n(C(C)C)c5n4)cc3)CCOCC2)CC1
[II] C=CC(=O)N1CCN([C@@](C)(CN2CCOCC2)c2ccc([C@H](C)Nc3ncc4ccc(=O)n(C(C)C)c4n3)cc2)CC1
[III] C=CC(=O)N1CCN(C2(c3ccc([C@H](C)Nc4ncc5ccc(=O)n(C(C)C)c5n4)cc3)CCOC2)CC1 (stereo partly shown)
In: Please order the records by their reported pIC50, lowest number first. Please list the labels in the order you were asked to rank them.
Out: I, III, II

[1] C=CC(=O)N1CCN(C2(c3ccc(C4(Nc5ncc6ccc(=O)n(C(C)C)c6n5)CC4)cc3)CCCC2)CC1
[2] C=CC(=O)N1CCN(C2(c3ccc([C@H](C)Nc4ncc5c(n4)N(CC)C(=O)OC5)cc3)CCOCC2)CC1
[3] C=CC(=O)N1CCN(C2(c3ccc([C@H](C)Nc4ncc5ccc(=O)n(C(C)C)c5n4)nc3)CCOCC2)CC1
In: Please order the records by their reported pIC50, lowest number first. Please list the labels in the order you were asked to rank them.
Out: 3, 1, 2

[P] C=CC(=O)N1CCN(C2(c3ccc([C@H](C)Nc4ncc5ccc(=O)n(C(C)C)c5n4)cc3)COC2)CC1
[Q] CCN1CCN(C2(c3ccc([C@H](C)Nc4ncc5c(n4)N(CC)C(=O)OC5)cc3)CCOCC2)CC1
In: Field: lower recorded pIC50 (choose P or Q ) // output: label of the selected item
Out: Q
